Origin of values: patent US20190367619A1

Molecular target: T1, human galectin-10-His (recombinant human galectin-10 with TEV-cleavable N-terminal His-tag) (human)
T1 construct: SEC-MALLS: dimer in solution; also called Gal10-His; humanGal10-His
T1 chain: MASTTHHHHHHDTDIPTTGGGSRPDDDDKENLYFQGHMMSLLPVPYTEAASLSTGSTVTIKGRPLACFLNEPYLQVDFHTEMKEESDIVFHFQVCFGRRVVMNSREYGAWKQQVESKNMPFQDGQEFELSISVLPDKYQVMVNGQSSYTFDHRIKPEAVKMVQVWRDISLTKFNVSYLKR
Assay: ELISA, mouse IgG1 on coated galectin-10-His (0.2 ug/mL)
Reported EC50 values for the following binders.
REPORTED METRIC: EC50 (pM)

BINDER	UNIT ANNOTATION	READING
6A08 mouse IgG1 (antibody, V domains shown, also called 6A08 mIgG1) VH: QVQLVESGGGLVQPGGSLRLSCAASGFTFSSYAMSWVRQAPGKGPEWVSAINRGGGSTYYADSVKGRFTISRDNAKNTLYLQMNSLKPEDAAVYYCATPGDRLWYYRYDYWGQGAQVTVSS VL: QTVVTQEPSLSVSPGGTVTLTCGLSSGSVTSSNYPGWYQQTPGQAPRLLIYNTNSRYSGVPNRFSGSISGNKAALIISGAQPEDEADYHCALNRVRGTYRVFGGGTHLTVL	pM	150
6B06 mouse IgG1 (antibody, V domains shown, also called 6B06 mIgG1) VH: QVQRQESGPGLVKPSQTLSLTCTVSGGSITTNYYSWSWIRQPPGKGLEWIGYIAYSGSTSYSPSLKSRTSISRDTSNNQFSLQLSSVTPEDTAVYYCARSRSSPTTFGMDYWGKGTLVTVSS VL: SSALTQPSAVSVSLGQTARITCQGGNFGRYYVSWYTQKPGQAPVLVIYQDSERPTGIPERFSGSSSGDTATLTISGAQAEDEADYYCQSGTSSDNIVFGGGTHLTVL	pM	80
2C07 mouse IgG1 (antibody, V domains shown, VH on mouse IgG1 heavy chain constant domains (CH1-CH2-CH3), VL on mouse lambda light chain constant domain; also called 2C07 mIgG1) VH: ELQLVESGGGLVQPGGSLRLSCAASGFTFSSYAMSWVRQAPGKGLEWVSNINSGGGSTGYADSVKGRFTISRDNAKNTLYLQMNSLKPEDMAVYYCAKYLRTYYPNAAFGMDYWGKGTLVTVSS VL: QAVLTQPSAVSVSLGQTARITCQGGNFGRYYASWYQQKPGQAPVLVIYRDSERPSGIPERFSGSSSGDTATLTISGAQAEDEADYYCQSGRSSDNAVFGGGTHLTGL	pM	80
